Test system: MS2 coat protein
Experiment: apparent KD of MS2 coat protein; higher = weaker reporter binding
Conditions: Eterna round: R107; input ligand: arginine 13.2 mM
Please use Criterion met whenever apparent KD of MS2 coat protein is not below 20 nM, and Criterion not met whenever it is.

Take a look at these entries with their results.
{"Seq string": "UGUAUGUGAUCUGAUACCAGAGUGAAUAAACCUGAGGAUCACCCUGGUACGCGAAAGCGACUCCCUUGGCAGCAGAUCGCAUACU", "Measurement target": "MS2 coat protein", "Class assignment": "Criterion met"}
{"Seq string": "ACGCCCGCCUCACAUGAGGAUCACCCAUGUCGAGGACCGGUACGGCCGCCACUCGUCGUCGGUAAUACGGGCGUUGAAUAAUAUA [Atedon]", "Measurement target": "MS2 coat protein", "Class assignment": "Criterion not met"}
{"Seq string": "GUACGAGUUGAAUGUGAGACUGGCGUGGAAGGAGCGCACGGAGGUGCAGGUAGGUCGCCACAUGAGGAUCACCCAUGUCGGCUAG [XARG-A 23]", "Measurement target": "MS2 coat protein", "Class assignment": "Criterion met"}
{"Seq string": "AGAUUCGACACGGCCGCCACUCGUGGAGGAUUACCGAGUGUCGAACAUGAGGAUCACCCAUGUACGAGGACCGGGUGUUGAGUCU [XTryp B #15]", "Measurement target": "MS2 coat protein", "Class assignment": "Criterion met"}
{"Seq string": "AAGGUGAUCCCAGAUACCAGCUUAACAUGAGGAUCACCCAUGUUUGGGACGAAAGUCCCGGGCCCUUGGCAGCUGGGUUGCCAAG [SSTheo B #18]", "Measurement target": "MS2 coat protein", "Class assignment": "Criterion met"}
{"Seq string": "CCGCACAUGAGGAUCACCCAUGUCAGGGAUACCAGCCCAGACAUGGGCCCUUGGCAGCCCUGUAGCUGACGAAAGUCAGCAGCGG [Omei Theo A SS A v1]", "Measurement target": "MS2 coat protein", "Class assignment": "Criterion met"}
{"Seq string": "GUAUACAUGAGGAUCACCCAUGUACCAGAAGGAGCGCUGGAAACAGCAGGUAGGUCGCUGGUAGGUCCUCUAUCUAGACGUUCGG [EAA NP+V+V2 #4]", "Measurement target": "MS2 coat protein", "Class assignment": "Criterion met"}
{"Seq string": "CAGAACAUGAGGAUCACCCAUGUAAACGACCGAGGACCGGUACGGCCGCCACUCGAUAUGUCUUGAGGGAGAUAUGGAUUCACAU [theeternabot_sameState_MS2_Trp_A_46]", "Measurement target": "MS2 coat protein", "Class assignment": "Criterion met"}

Is the recorded value of apparent KD of MS2 coat protein equal to or greater than 20 nM for this sequence? GACAUGAGGAUCACCCAUGUUUGCUAUGAAGGAGCGUCGGAAAUGACAGGUAGGUCGCAUAGUAGGCCUUGUAUUUUGUGUGUUU [EAA #8]
Criterion not met

Is reported apparent KD of MS2 coat protein greater than or equal to 20 nM here: AGUACACGAACGGAUACCAGCCGGACAUGAGGAUCACCCAUGUCCUACCUCUGUUCGGUUGGCCCUUGGCAGCCGUUCGUGUACA [Omei Theo B SS A v8]
Criterion met

Would you say UCGUGUAUUUCGGAUACCAGUGAAAUCGAUACAUGAGGAUCACCCAUGUGAGAGGAUGUACACCCUUGGCAGCUGUCUGUAUCUG [cxezmullin] shows apparent KD of MS2 coat protein at minimum 20 nM?
Criterion not met

Reported apparent KD of MS2 coat protein at or above 20 nM? ACAUGAGGAUCACCCAUGUAAAUAACGGAAGGAGCGUGCGAAAGCACAGGUAGGUCGCCGAUAUAAAUAUUGGGUAUUAUAUUAU [#28 Exclusion - Arginine A]
Criterion not met
